# Test system: LXRa:RXRa (NR concentration 270 nM, RXRa partner concentration 90 nM)
# assay.explanation: PBM binding z-score (relative to random genomic background probes); higher = stronger binding; sequences stand for … in GC…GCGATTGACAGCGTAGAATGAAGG
So basically: PBM binding z-score at 1 or higher? That is t. Lower than 1? That is f.

Before answering, review these 2 worked examples.
CGTACTGGGCCATCAGGTCATTGATATCAACGTT; t
CCGACTGGGGCAAGGGTTACCATACTCAGTACGA; f

Exercise: Say whether TAGCCTAGGTCAGATCTGGCCAGTATACGCTATA shows PBM binding z-score of 1 or more.
Key: t

Exercise: Say whether GCGATTAGTTGAAAGGGCAACCGAATGATTCTCG shows PBM binding z-score of 1 or more.
Key: f

Exercise: Say whether CAAACTAGGTCAAAGGGCAAAGTCGAGCCAACCA shows PBM binding z-score of 1 or more.
Key: t

Exercise: Say whether GTACCAAGGTGATTAGGTCGTTGATGAGTAGGCG shows PBM binding z-score of 1 or more.
Key: f

Exercise: Say whether CAAACTAGGTCAAGATCAAAGTCGGTTTGTGCCA shows PBM binding z-score of 1 or more.
Key: t

Exercise: Say whether CCTTACGGGTTAAGGTTATAGCACGGGTGGTACG shows PBM binding z-score of 1 or more.
Key: t

Exercise: Say whether TCTTGTAGATCAACAGGAGGTTAAGATAGATCGA shows PBM binding z-score of 1 or more.
Key: t
